test: in vitro; conditions: human, hela cells, % viability
attributeMeasured: viability at 28.5 h, 10 µM (%)

1. CCCN(CCC)C(=O)Cn1cnc2ccc(Cl)cc2c1=O :: 78.2
2. O=C(O)CCc1nn2c3ccccc3n(CCN3CCCCC3)c2nc1=O :: 97.5
3. COc1cc2c(cc1-c1cn(CCc3n[nH]c(=O)[nH]3)nn1)CCC2 :: 98.3
4. N#C/C(=C\c1ccc2noc(-c3ccccc3)c2c1)c1nc(-c2cc3ccccc3oc2=O)cs1 :: 90.2
5. C=C(C)Cn1c(SCC(=O)O)nnc1-c1ccccc1 :: 91.9
6. COc1ccccc1CNC(=O)c1ccc(Cl)c(S(=O)(=O)N2CCOCC2)c1 :: 69.3
7. CC(C)c1noc(NCc2nnc3n2CCCCC3)n1 :: 113
8. CC(Nc1cccc2ccccc12)C(=O)N/N=C/c1c(O)ccc2ccccc12 (stereo not drawn) :: 97.5
9. CN1CCC(N(C)C(=O)Nc2ccc3c(c2)OCCO3)C1 (stereo not drawn) :: 116
10. CCN(Cc1ccncc1)C(=O)NCc1cccnc1 :: 94.6
11. CCOC(=O)C1=NN(C)c2cnn(Cc3ccc(Cl)cc3)c(=O)c2C1C(=O)CC(C)C (stereo not drawn) :: 91.9
12. CCc1c(C)sc(NC(=O)C2C3C=CC(C3)C2C(=O)O)c1C(N)=O (stereo not drawn) :: 97.9

* * *

As shown below, each of these molecules has a reported viability at 28.5 h, 10 µM value.
test: in vitro; conditions: human, hela cells, % viability
attributeMeasured: viability at 28.5 h, 10 µM (%)

1) CN1CCC(N(C2CC2)S(=O)(=O)c2ccc(NC(=O)C(C)(C)C)cc2)CC1 [CBK021115] :: 99
2) Cc1ccc(C(=O)NCc2ccco2)c(NCc2cccnc2)n1 [CBK076383] :: 102
3) COc1cc(OC)c(CCNC2CCCc3c2cnn3C)c(OC)c1 (stereo not drawn) [CBK304482] :: 111

* * *

As shown below, each of these compounds has a reported viability at 28.5 h, 10 µM value.
assay: in vitro; details: human, hela cells, % viability
attributeMeasured: viability at 28.5 h, 10 µM (%)

1. COc1ccc2[nH]c3c(c2c1)CCNC31CCN(CCC2CCCCC2)C1 (stereo not shown) [CBK040111T] :: 90.7
2. OCCNc1nc(Nc2ccc(Br)cc2)nc2ccccc12 [CBK266724C] :: 87.7
3. Cc1n[nH]cc1-c1nsc(Nc2ccccc2)n1 [CBK113680] :: 92.2
4. CCN(CCO)c1ccc(Nc2cc(-c3cccc([N+](=O)[O-])c3)ncn2)cc1 [CBK091002] :: 92.2
5. Cn1nccc1NS(=O)(=O)c1cccc2cccnc12 [CBK062069] :: 98.9
6. COc1cc([N+](=O)[O-])ccc1NC(=O)CS(=O)(=O)Cc1ccccc1 [CBK266704] :: 105
7. COCC(=O)N1CCc2sccc2C1c1ccc(NCc2ccc(C)o2)cc1 (stereo not shown) [CBK286447] :: 96.3
8. CC(=O)Nc1ccc(S(=O)(=O)N2CCCC(CO)C2)cc1 (stereo not shown) [CBK262108] :: 98.6
9. COc1ccccc1C1OC(=O)CC1C(=O)N1CCN(c2ccc(C(F)(F)F)cc2)CC1 (stereo not shown) [CBK091313] :: 111
10. CC1(OCCCO)SC(NC2CCCCCC2)=NC1=O (stereo not shown) [CBK107927] :: 91.5
11. COc1cccc(-c2cnc3[nH]c(=O)n(CCCO)c3n2)c1 [CBK065036] :: 93.3
12. Cc1ccc(-c2nnc(CNC(=O)C3(c4ccccc4)CC3)o2)s1 [CBK284642] :: 95.9
13. c1nc(OC2CCOC2)cc(N2CCCC2)n1 (stereo not shown) [CBK115899] :: 88.4
14. Cc1nc(-c2ccccc2)sc1C(=O)C1=C(O)C(=O)N(CCN2CCOCC2)C1c1ccccc1F (stereo not shown) [CBK266511] :: 103
15. O=c1cc(CSc2nnc(-c3ccccc3)[nH]2)nc2[nH]cnn12 [CBK294398] :: 96.1
16. O=C(O)C1CCCCC1C(=O)N1CCN(C(c2ccccc2)c2ccccc2)CC1 (stereo not shown) [CBK265480] :: 90.7
17. Cc1cc(N2CCC(N(C)C)CC2)nc(N)n1 [CBK167267] :: 106
18. O=C(NC1CCN(CC2(c3ccccc3)CC2)CC1)c1cc[nH]n1 [CBK285351] :: 88.4
19. O=S(=O)(Nc1cccc(-c2cnco2)c1)c1ccc(-c2cc(C(F)(F)F)on2)s1 [CBK067124] :: 100
